Target: Growth hormone secretagogue receptor type 1 (Homo sapiens, UniProt Q92847)
Sequence (Q92847 whole entry): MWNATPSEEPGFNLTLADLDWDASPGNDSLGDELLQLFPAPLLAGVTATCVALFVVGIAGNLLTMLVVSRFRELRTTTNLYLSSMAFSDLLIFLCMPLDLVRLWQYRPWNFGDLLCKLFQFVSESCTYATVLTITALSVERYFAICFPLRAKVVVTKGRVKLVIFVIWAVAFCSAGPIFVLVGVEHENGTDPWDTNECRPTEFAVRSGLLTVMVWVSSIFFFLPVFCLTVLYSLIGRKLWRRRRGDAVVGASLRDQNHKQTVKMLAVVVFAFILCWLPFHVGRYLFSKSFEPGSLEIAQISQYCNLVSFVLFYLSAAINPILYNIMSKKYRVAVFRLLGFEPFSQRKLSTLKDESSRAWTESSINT
Assay: Agonist activity at human GHS receptor expressed in H4 cells by FLIPR assay
pEC50: −log10 of the molar value.
property.label: pEC50

Known pEC50 results, listed for orientation:
CC(C)(N)C(=O)N[C@H](COCc1ccccc1)c1nnnn1CCCC(=O)NCCc1ccccc1 :: 7.64
CC(C)(N)C(=O)N[C@H](COCc1ccccc1)c1nnnn1CCNC(=O)CCS(C)(=O)=O :: 7.83
CC(C)(N)C(=O)N[C@H](COCc1ccccc1)c1nnnn1CCCC(=O)NCCS(=O)(=O)CCO :: 9.70
CC(C)(N)C(=O)N[C@H](COCc1ccccc1)c1nnnn1CCOc1cccc(C(=O)NCCO)c1 :: 8.08

[1] CC(C)(N)C(=O)N[C@H](COCc1ccccc1)c1nnnn1CCOc1ccccc1C(=O)NCCO
[2] CC(C)(N)C(=O)N[C@H](COCc1ccccc1)c1nnnn1CCCC(=O)NCCc1cccc(S(=O)(=O)CCO)c1
[3] CC(C)(N)C(=O)N[C@H](COCc1ccccc1)c1nnnn1CCCC(=O)NCCSCCO
[4] CC(C)(N)C(=O)N[C@H](COCc1ccccc1)c1nnnn1CCNC(=O)CCc1cccc(O)c1
[5] CC(C)(N)C(=O)N[C@H](COCc1ccccc1)c1nnnn1CCNC(=O)CCCCO
q: Rank order required: pEC50, descending. Rank them, then answer with their labels in that order.
a: 3, 4, 5, 1, 2
(3: 9.70, 4: 9.19, 5: 8.36, 1: 7.96, 2: 6.98)
